Biological target: UniProt:Q9UHD2
pIC50: −log10 of the molar value.
pIC50 reference

compound: CN(CCO)C(=O)c1ccc(-c2cc3nccc(-c4ccc(OCC5CC5)c(C#N)c4)c3o2)cc1
attribute.measured: pIC50
observed.measurement: > 6.52
--
compound: CCN(CCOC)C(=O)c1cccc(-c2cc3nccc(-c4ccc(OC5CCOCC5)c(C#N)c4)c3o2)c1 [Compound A26a]
attribute.measured: pIC50
observed.measurement: 5.52 to 6.52
--
compound: Cn1cc(-c2cc3nccc(-c4ccc(OC5CCOCC5)c(C#N)c4)c3o2)cn1
attribute.measured: pIC50
observed.measurement: > 6.52

Next compound, please.
Record for CNCCNC(=O)c1ccc(-c2cc3nccc(-c4ccc(OC5CCOCC5)c(C#N)c4)c3o2)cc1 under target or system UniProt:Q9UHD2: pIC50 reported as 5.52 to 6.52

* * *

Target: TANK binding kinase (TBK1) (Homo sapiens, UniProt Q9UHD2)
Sequence (Q9UHD2 1-729): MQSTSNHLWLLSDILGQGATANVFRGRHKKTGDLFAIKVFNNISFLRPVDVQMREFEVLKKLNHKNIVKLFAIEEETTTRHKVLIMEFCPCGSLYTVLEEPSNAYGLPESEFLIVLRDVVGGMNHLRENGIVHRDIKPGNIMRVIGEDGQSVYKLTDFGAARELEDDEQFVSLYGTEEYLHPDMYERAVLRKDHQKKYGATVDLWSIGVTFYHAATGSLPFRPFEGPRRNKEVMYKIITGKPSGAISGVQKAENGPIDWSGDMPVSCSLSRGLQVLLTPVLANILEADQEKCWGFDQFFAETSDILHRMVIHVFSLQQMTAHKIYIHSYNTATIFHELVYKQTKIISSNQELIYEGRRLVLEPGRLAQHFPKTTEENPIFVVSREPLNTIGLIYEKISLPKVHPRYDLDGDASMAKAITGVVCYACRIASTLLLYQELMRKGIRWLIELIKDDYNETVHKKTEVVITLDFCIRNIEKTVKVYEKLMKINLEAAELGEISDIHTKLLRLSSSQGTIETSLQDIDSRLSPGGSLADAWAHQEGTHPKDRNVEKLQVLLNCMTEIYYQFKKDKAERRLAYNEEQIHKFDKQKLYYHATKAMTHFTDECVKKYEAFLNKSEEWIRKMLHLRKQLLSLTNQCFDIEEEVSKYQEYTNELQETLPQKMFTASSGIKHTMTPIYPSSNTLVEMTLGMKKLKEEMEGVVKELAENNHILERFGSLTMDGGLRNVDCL
attribute.measured: IC50

smiles.input: CS(=O)(=O)c1cncc(-c2cc3nccc(-c4ccc(OC5CCOCC5)c(C#N)c4)c3o2)c1
IC50: 300 to 3000 nM

Form field IC50, entry CN(C)CCNC(=O)c1ccc(-c2cc3nccc(-c4ccc(OC5CCOCC5)c(C#N)c4)c3o2)cc1 : < 300 nM

Please fill in: IC50 reported for COc1cc(-c2cc3nccc(-c4ccc(OC5CCOCC5)c(C#N)c4)c3o2)ccc1C(=O)N1CC[C@@H](O)C1 = < 300 nM

Per the record, CC(C)(C)OCCNC(=O)c1ccc(-c2cc3nccc(-c4ccc(OC5CCOCC5)c(C#N)c4)c3o2)cc1 has IC50 of 300 to 3000 nM

compound COc1cncc(-c2cc3nccc(-c4ccc(OC5CCOCC5)c(C#N)c4)c3o2)c1 , IC50 observed: 300 to 3000 nM

Given item N#Cc1cc(-c2ccnc3cc(-c4cnn(CCO)c4)sc23)ccc1OC1CCOCC1 , the value recorded as its IC50 is < 300 nM

Item: COc1cc(-c2cc3nccc(-c4ccc(OC5CCOCC5)c(C#N)c4)c3o2)ccc1C(=O)NC1CCOCC1 | IC50: < 300 nM

* * *

Here, each record is paired with measured pIC50 data.
Protein target, amino acids: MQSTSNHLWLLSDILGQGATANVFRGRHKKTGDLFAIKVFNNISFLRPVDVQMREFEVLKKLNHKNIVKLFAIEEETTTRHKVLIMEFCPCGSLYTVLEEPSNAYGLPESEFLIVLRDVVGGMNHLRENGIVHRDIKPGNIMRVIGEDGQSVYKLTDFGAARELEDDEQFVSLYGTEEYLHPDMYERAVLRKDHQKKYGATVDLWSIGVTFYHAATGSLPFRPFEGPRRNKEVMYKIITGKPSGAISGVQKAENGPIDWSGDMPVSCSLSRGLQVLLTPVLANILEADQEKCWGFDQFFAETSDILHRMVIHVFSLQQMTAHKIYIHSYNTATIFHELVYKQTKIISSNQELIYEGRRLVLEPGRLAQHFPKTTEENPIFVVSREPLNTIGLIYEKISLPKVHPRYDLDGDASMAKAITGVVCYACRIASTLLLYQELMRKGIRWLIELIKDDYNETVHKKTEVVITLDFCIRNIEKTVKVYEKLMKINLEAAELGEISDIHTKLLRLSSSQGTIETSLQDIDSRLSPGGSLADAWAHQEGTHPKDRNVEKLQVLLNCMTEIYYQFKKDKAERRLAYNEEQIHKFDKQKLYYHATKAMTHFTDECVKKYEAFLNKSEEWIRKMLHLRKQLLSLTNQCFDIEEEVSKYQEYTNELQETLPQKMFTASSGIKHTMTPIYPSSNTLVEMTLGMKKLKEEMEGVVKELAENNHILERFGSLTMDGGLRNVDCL
pIC50: −log10 of the molar value.

Answered examples (2):
compound: COc1cc(-c2cc3nccc(-c4ccc(OC5CCOCC5)c(C#N)c4)c3o2)ccc1C(=O)N1CCNC(=O)CC1 [Compound A91]
pIC50: > 6.52
//
compound: COCCNC(=O)c1ccc(-c2cc3nccc(-c4ccc(OC5CCOCC5)c(C#N)c4)c3o2)cc1 [Compound A22]
pIC50: 5.52 to 6.52

Memo: N#Cc1cc(-c2ccnc3cc(-c4ccc5cn[nH]c5c4)oc23)ccc1OC1CCOCC1 [Compound A71] , reported pIC50: 5.52 to 6.52

* * *

Target: TANK binding kinase (TBK1) (Homo sapiens, UniProt Q9UHD2)
Experiment: TBK1 enzyme assay (384-well Flashplate kinase assay)
Type: biochemical
Conditions: 10 μM ATP, 120 Min at 30° C.
pIC50: −log10 of the molar value.
attribute.measured: pIC50

compound: CCN(CCOC)C(=O)c1ccc(-c2cc3nccc(-c4ccc(OC5CCOCC5)c(C#N)c4)c3o2)cc1 [Compound A3]
measured.target: TANK binding kinase (TBK1) (Homo sapiens, UniProt Q9UHD2)
attribute.measured: pIC50
observed.measurement: > 6.52
--
compound: N#Cc1cc(-c2ccnc3cc(-c4ccc(C(N)=O)cc4)oc23)ccc1OC1CCOCC1 [Compound A18]
measured.target: TANK binding kinase (TBK1) (Homo sapiens, UniProt Q9UHD2)
attribute.measured: pIC50
observed.measurement: 4.30 to 5.52
--
compound: N#Cc1cc(-c2ccnc3cc(-c4ccc(C(=O)N5CCNCC5)cc4)oc23)ccc1OCC1CCC1 [Compound A38]
measured.target: TANK binding kinase (TBK1) (Homo sapiens, UniProt Q9UHD2)
attribute.measured: pIC50
observed.measurement: > 6.52

Next up:
For reference, reported pIC50 for N#Cc1cc(-c2ccnc3cc(-c4ccc(N5CCOCC5)cc4)oc23)ccc1OC1CCOCC1 [Compound A1] stands at 4.30 to 5.52

* * *

Target chain: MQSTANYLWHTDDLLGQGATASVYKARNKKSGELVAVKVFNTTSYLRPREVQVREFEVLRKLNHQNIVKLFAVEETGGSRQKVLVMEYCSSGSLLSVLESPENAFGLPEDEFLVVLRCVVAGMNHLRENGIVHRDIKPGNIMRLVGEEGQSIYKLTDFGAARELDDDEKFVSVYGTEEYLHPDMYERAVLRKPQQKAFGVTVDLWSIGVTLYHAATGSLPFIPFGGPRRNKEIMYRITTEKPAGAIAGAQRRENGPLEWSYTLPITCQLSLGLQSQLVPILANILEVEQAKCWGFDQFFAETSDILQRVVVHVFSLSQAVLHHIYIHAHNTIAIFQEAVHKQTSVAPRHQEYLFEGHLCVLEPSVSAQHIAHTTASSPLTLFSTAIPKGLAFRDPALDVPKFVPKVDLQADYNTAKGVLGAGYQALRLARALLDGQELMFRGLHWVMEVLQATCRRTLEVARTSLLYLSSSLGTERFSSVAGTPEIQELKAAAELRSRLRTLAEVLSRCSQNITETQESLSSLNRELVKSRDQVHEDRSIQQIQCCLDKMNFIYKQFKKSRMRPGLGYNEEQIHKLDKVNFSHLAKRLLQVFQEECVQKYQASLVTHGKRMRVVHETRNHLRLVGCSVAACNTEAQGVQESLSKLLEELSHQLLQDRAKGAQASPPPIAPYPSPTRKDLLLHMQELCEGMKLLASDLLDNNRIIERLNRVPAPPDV
pIC50: −log10 of the molar value.
Here the recorded pIC50 is given for each entry.

compound: CCN(CCOC)C(=O)c1cccc(-c2cc3nccc(-c4ccc(OC5CCOCC5)c(C#N)c4)c3o2)c1 [Compound A26a]
observed.measurement: 5.52 to 6.52
//
compound: CN1CCN(C(=O)c2ccc(-c3cc4nccc(-c5ccc(OC6CCOC6)c(C#N)c5)c4o3)cc2)CC1 (stereo not drawn) [Compound A42]
observed.measurement: > 6.52
//
compound: N#Cc1cc(-c2ccnc3cc(-c4cncc(C(=O)N5CCOCC5)c4)oc23)ccc1OC1CCOCC1 [Compound A65]
observed.measurement: > 6.52

The compound N#Cc1cc(-c2ccnc3cc(-c4cnc5ccccc5c4)oc23)ccc1OC1CCOCC1 [Compound A57] showed pIC50 equal to 5.52 to 6.52

What the record says about COc1cc(-c2cc3nccc(-c4ccc(OC5CCOC5)c(C#N)c4)c3o2)ccc1C(=O)N1CCNCC1 (stereo not drawn) [Compound A68] : pIC50 is > 6.52

Query N#Cc1cc(-c2ccnc3cc(-c4ccc(N5CCOCC5)nc4)oc23)ccc1OC1CCOCC1 [Compound A56] yields pIC50 of > 6.52

Form: compound = N#Cc1cc(-c2ccnc3cc(-c4ccc(C(=O)N5CCOCC5)cc4F)oc23)ccc1OC1CCOCC1 [Compound A114] ; pIC50 = > 6.52

Summary for this compound, CN(C)CCN(C)C(=O)c1ccc(-c2cc3nccc(-c4ccc(OC5CCOCC5)c(C#N)c4)c3o2)cc1 [Compound A28] : pIC50 is > 6.52

# pIC50 (compound: COc1cc(-c2cc3nccc(-c4ccc(OC5CCOCC5)c(C#N)c4)c3o2)ccc1C(=O)N1CCNC(=O)CC1 [Compound A91] ) is > 6.52

Documented pIC50 of N#Cc1cc(-c2ccnc3cc(-c4ccc(C(=O)N5CCN(CCO)CC5)cc4)oc23)ccc1OC1CCOCC1 [Compound A84] : > 6.52

The compound identified as N#Cc1cc(-c2ccnc3cc(-c4ccc(N5CCOCC5)cc4)oc23)ccc1OC1CCOCC1 [Compound A1] registered its pIC50 at 4.30 to 5.52

Briefly, pIC50 measured for CN1CCN(c2ccc(-c3cc4nccc(-c5ccc(OC6CCOCC6)c(C#N)c5)c4o3)cc2)CC1 [Compound A10] : > 6.52

Entry COc1cc(-c2cc3nccc(-c4ccc(OC5CCOCC5)c(C#N)c4)c3o2)ccc1C(=O)NCCN(C)C [Compound A32] — recorded pIC50 = > 6.52

For CNC(=O)c1ccc(-c2cc3nccc(-c4ccc(OC5CCOCC5)c(C#N)c4)c3o2)cc1 [Compound A19] the compound record lists pIC50 as 5.52 to 6.52

Reported pIC50 ( N#Cc1cc(-c2ccnc3cc(-c4cnn(C5CCN(CCO)CC5)c4)oc23)ccc1OC1CCOCC1 [Compound A67] ) = > 6.52
